Measured values drawn from paper PMC5365648 for this set.

Assay: Rat tissue distribution after i.v. bolus
Format: in vivo, Sprague-Dawley rats
Details: rat, spleen / plasma, iv; male Sprague-Dawley rats, single 5 mg/kg i.v. bolus, t = 120 h, tissue homogenate, LC-MS/MS, n = 3/time point; read-out: Tissue/plasma AUC0–t ratio, spleen
Starred links: 1 amine or outer side, 2 acyl side, 3 side chain; linkers in the order of their positions; H or OH if unused. Positions of bridges follow the written chain, without caps; N, C: chain ends. Non-standard residues stand in square brackets, D forms with d. Residues, ends and D or L forms follow the SMILES beside them. *: point of attachment. Orn(4R-OH,5R-OCH2CH2NMe3+) = C[N+](C)(C)CCO[C@@H](N[*:3])[C@H](O)C[C@H](N[*:1])C(=O)[*:2]; pTerphenylCO(4''-OnC5H11) = CCCCCOc1ccc(-c2ccc(-c3ccc(C(=O)*)cc3)cc2)cc1; hTyr(3S-OH,4S-OH) = N[C@H](C(=O)O)[C@H](O)[C@@H](O)c1ccc(O)cc1; Pro(3S-OH,4S-Me) = C[C@H]1CN[C@H](C(=O)O)[C@H]1O; Hyp = O=C(O)[C@@H]1C[C@@H](O)CN1
quantity_name: Kp
Give bare numbers.

## Task Query: Kp; subject: CCCCCOc1ccc(-c2ccc(-c3ccc(C(=O)N[C@H]4C[C@@H](O)[C@@H](OCC[N+](C)(C)C)NC(=O)[C@@H]5[C@@H](O)[C@@H](C)CN5C(=O)[C@H]([C@@H](C)O)NC(=O)[C@H]([C@H](O)[C@@H](O)c5ccc(O)cc5)NC(=O)[C@@H]5C[C@@H](O)CN5C(=O)[C@H]([C@@H](C)O)NC4=O)cc3)cc2)cc1 [CD101] ({pTerphenylCO(4''-OnC5H11)}-[Orn(4R-OH,5R-OCH2CH2NMe3+)]T[Hyp][hTyr(3S-OH,4S-OH)]T[Pro(3S-OH,4S-Me)]; lactam 1-C)
## Result 3.87
